Protocol Description: Urinary excretion study in rats after oral NS, SF or CNS (LC–MS/MS)
Assay type: in vivo
Conditions Used: rat urine, oral NS 60 mg/kg, 6 h
Recorded Accumulative excretion percentage, one value per entry.
Expressed in %, but write only the number.

Examples from the recorded data:
{"Compound": "CC(C)=CCC[C@](C)(O[C@@H]1O[C@H](CO[C@@H]2O[C@H](CO)[C@@H](O)[C@H](O)[C@H]2O)[C@@H](O)[C@H](O)[C@H]1O)[C@H]1CC[C@]2(C)[C@@H]1[C@H](O)C[C@@H]1[C@@]3(C)CC[C@H](O[C@@H]4O[C@H](CO)[C@@H](O)[C@H](O)[C@H]4O[C@@H]4O[C@H](CO)[C@@H](O)[C@H](O)[C@H]4O)C(C)(C)[C@@H]3CC[C@]12C [ginsenoside Rb1]", "Unit Abbrev": "%", "Accumulative excretion percentage": 0.019}
{"Compound": "CC(C)=CCC[C@](C)(O[C@@H]1O[C@H](CO)[C@@H](O)[C@H](O)[C@H]1O)[C@H]1CC[C@]2(C)[C@@H]1[C@H](O)C[C@@H]1[C@@]3(C)CC[C@H](O[C@@H]4O[C@H](CO)[C@@H](O)[C@H](O)[C@H]4O[C@@H]4O[C@H](CO)[C@@H](O)[C@H](O)[C@H]4O)C(C)(C)[C@@H]3CC[C@]12C [ginsenoside Rd]", "Unit Abbrev": "%", "Accumulative excretion percentage": 0.006}

Here is another compound to look at.
Exercise: Quick one: Accumulative excretion percentage of CC(C)=CCC[C@](C)(O[C@@H]1O[C@H](CO)[C@@H](O)[C@H](O)[C@H]1O)[C@H]1CC[C@]2(C)[C@@H]1[C@H](O)C[C@@H]1[C@@]3(C)CC[C@H](O)C(C)(C)[C@@H]3[C@@H](O[C@@H]3O[C@H](CO)[C@@H](O)[C@H](O)[C@H]3O[C@@H]3O[C@@H](C)[C@H](O)[C@@H](O)[C@H]3O)C[C@]12C [ginsenoside Re] ?
Key: 0.096

###

Protocol Description: Urinary excretion study in rats after oral NS, SF or CNS (LC–MS/MS)
Assay type: in vivo
Conditions Used: rat urine, oral CNS 110 mg/kg, 48 h
Measurement Type: Accumulative excretion amount (µg)
I only need the number, in µg, no unit after it.

Recorded Accumulative excretion amount, per entry:
{"Compound": "CC(C)=CCC[C@](C)(O[C@@H]1O[C@H](CO[C@@H]2O[C@H](CO)[C@@H](O)[C@H](O)[C@H]2O)[C@@H](O)[C@H](O)[C@H]1O)[C@H]1CC[C@]2(C)[C@@H]1[C@H](O)C[C@@H]1[C@@]3(C)CC[C@H](O[C@@H]4O[C@H](CO)[C@@H](O)[C@H](O)[C@H]4O[C@@H]4O[C@H](CO)[C@@H](O)[C@H](O)[C@H]4O)C(C)(C)[C@@H]3CC[C@]12C [ginsenoside Rb1]", "Measurement Type": "Accumulative excretion amount", "Numeric Value": 1.303}
{"Compound": "CC(C)=CCC[C@](C)(O[C@@H]1O[C@H](CO)[C@@H](O)[C@H](O)[C@H]1O)[C@H]1CC[C@]2(C)[C@@H]1[C@H](O)C[C@@H]1[C@@]3(C)CC[C@H](O[C@@H]4O[C@H](CO)[C@@H](O)[C@H](O)[C@H]4O[C@@H]4O[C@H](CO)[C@@H](O)[C@H](O)[C@H]4O)C(C)(C)[C@@H]3CC[C@]12C [ginsenoside Rd]", "Measurement Type": "Accumulative excretion amount", "Numeric Value": 0.135}

Exercise: Recorded Accumulative excretion amount for CC(C)=CCC[C@](C)(O[C@@H]1O[C@H](CO)[C@@H](O)[C@H](O)[C@H]1O)[C@H]1CC[C@]2(C)[C@@H]1[C@H](O)C[C@@H]1[C@@]3(C)CC[C@H](O)C(C)(C)[C@@H]3[C@@H](O[C@@H]3O[C@H](CO)[C@@H](O)[C@H](O)[C@H]3O)C[C@]12C [ginsenoside Rg1] , please?
Key: 8.689

Exercise: So what's the measured Accumulative excretion amount for this one? CC(C)=CCC[C@](C)(O[C@@H]1O[C@H](CO)[C@@H](O)[C@H](O)[C@H]1O)[C@H]1CC[C@]2(C)[C@@H]1[C@H](O)C[C@@H]1[C@@]3(C)CC[C@H](O)C(C)(C)[C@@H]3[C@@H](O[C@@H]3O[C@H](CO)[C@@H](O)[C@H](O)[C@H]3O[C@@H]3O[C@@H](C)[C@H](O)[C@@H](O)[C@H]3O)C[C@]12C [ginsenoside Re]
Key: 0.447

This collection of values is drawn from paper PMC6321168.
